tgt: T1, endogenous GLP-1 receptor of a murine insulinoma cell line (murine, UniProt O35659 22-463)
T1 sequence (looked up): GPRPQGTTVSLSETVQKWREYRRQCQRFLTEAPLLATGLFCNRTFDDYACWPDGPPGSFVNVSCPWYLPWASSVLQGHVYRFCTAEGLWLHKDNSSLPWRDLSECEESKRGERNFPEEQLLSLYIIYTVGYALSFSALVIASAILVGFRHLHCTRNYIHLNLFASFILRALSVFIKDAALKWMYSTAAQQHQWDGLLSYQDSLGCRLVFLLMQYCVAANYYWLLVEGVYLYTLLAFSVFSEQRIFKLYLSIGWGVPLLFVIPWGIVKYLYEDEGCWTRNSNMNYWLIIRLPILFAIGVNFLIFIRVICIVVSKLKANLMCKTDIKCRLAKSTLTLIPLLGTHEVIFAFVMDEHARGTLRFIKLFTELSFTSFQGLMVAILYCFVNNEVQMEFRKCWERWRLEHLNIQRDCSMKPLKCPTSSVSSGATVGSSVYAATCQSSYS
experiment_description: cell-based or functional assay
*1 amine or outer side, *2 acyl side, *3 side chain or, on linkers, in order; H or OH if unused. Side-chain parts run from the residue outwards. [ ]: non-standard residue; d: D form. The star is where a group is joined. C18 diacid = O=C(O)CCCCCCCCCCCCCCCCC(=O)*; γGlu = O=C(O)[C@H](CCC(=O)[*:2])N[*:1]; Ac4c = NC1(C(=O)O)CCC1; Aib = CC(C)(N)C(=O)O
In plain terms, low EC50 [nM] (cAMP in a murine insulinoma cell line), meaning strictly below 0.5 nM, gives true, and everything else gives false.

Ask: Lab log: compare recorded EC50 [nM] (cAMP in a murine insulinoma cell line) with 0.5 nM; is it strictly lower for HXQGTFTSDYSKYLDKRAAKDFIEWLESA (Ac4c at position 2; Lys 16 side chain conjugated to [17-carboxy-heptadecanoyl]-isoGlu-GSGSGG; C-terminal amide) [H-H-Ac4c-QGTFTSDYSKYLD-K([17-carboxy-heptadecanoyl]-isoGlu-GSGSGG)-RAAKDFIEWLESA-NH2] ?
Result: true

Ask: Lab log: compare recorded EC50 [nM] (cAMP in a murine insulinoma cell line) with 0.5 nM; is it strictly lower for HXQGTFTSDYSKYLDERRAKDFIKWLESA (Ac4c at position 2; Lys 24 side chain conjugated to [17-carboxy-heptadecanoyl]-isoGlu-GSGSGG; C-terminal amide) [H-H-Ac4c-QGTFTSDYSKYLDERRAKDFI-K([17-carboxy-heptadecanoyl]-isoGlu-GSGSGG)-WLESA-NH2] ?
Result: true

Ask: Lab log: compare recorded EC50 [nM] (cAMP in a murine insulinoma cell line) with 0.5 nM; is it strictly lower for H-H[Aib]QGTFTSDYSKYLDK([Peg3-Peg3-γGlu-C18 diacid])RAAKDFIEWLESA-NH2 [H-H-Aib-QGTFTSDYSKYLD-K([17-carboxy-heptadecanoyl]-isoGlu-Peg3-Peg3)-RAAKDFIEWLESA-NH2] ?
Result: false

Ask: Lab log: compare recorded EC50 [nM] (cAMP in a murine insulinoma cell line) with 0.5 nM; is it strictly lower for HXQGTFTSDYSKYLEKRAAKDFIEWLESA (Aib at position 2; Lys 16 side chain conjugated to [17-carboxy-heptadecanoyl]-isoGlu-GSGSGG; C-terminal amide) [H-H-Aib-QGTFTSDYSKYLE-K([17-carboxy-heptadecanoyl]-isoGlu-GSGSGG)-RAAKDFIEWLESA-NH2] ?
Result: false

Ask: Lab log: compare recorded EC50 [nM] (cAMP in a murine insulinoma cell line) with 0.5 nM; is it strictly lower for HXQGTFTSDYSKYLDERAAKDFIEWLEKA (Ac4c at position 2; Lys 28 side chain conjugated to [17-carboxy-heptadecanoyl]-isoGlu-GSGSGG; C-terminal amide) [H-H-Ac4c-QGTFTSDYSKYLDERAAKDFIEWLE-K([17-carboxy-heptadecanoyl]-isoGlu-GSGSGG)-A-NH2] ?
Result: true

Ask: Lab log: compare recorded EC50 [nM] (cAMP in a murine insulinoma cell line) with 0.5 nM; is it strictly lower for H-H[Ac4c]HGTFTSDYSKYLDEK([Peg3-Peg3-γGlu-C18 diacid])RAKDFIEWLESA-NH2 [H-H-Ac4c-HGTFTSDYSKYLDE-K([17-carboxy-heptadecanoyl]-isoGlu-Peg3-Peg3)-RAKDFIEWLESA-NH2] ?
Result: false

Ask: Lab log: compare recorded EC50 [nM] (cAMP in a murine insulinoma cell line) with 0.5 nM; is it strictly lower for H-H[Ac4c]QGTFTSDYSKYLDERAAKDFIKWLESA-NH2 (not fully specified (residue 24)) [H-H-Ac4c-QGTFTSDYSKYLDERAAKDFI-K([17-carboxy-heptadecanoyl]-isoGlu-GSGSGG)-WLESA-NH2] ?
Result: true

Ask: Lab log: compare recorded EC50 [nM] (cAMP in a murine insulinoma cell line) with 0.5 nM; is it strictly lower for HXQGTFTSDYSKYLDSKAAHDFVEWLLSA (Aib at position 2; Lys 17 side chain conjugated to [15-carboxy-pentadecanoyl]-isoGlu; C-terminal amide) [H-H-Aib-QGTFTSDYSKYLDS-K([15-carboxy-pentadecanoyl]-isoGlu)-AAHDFVEWLLSA-NH2] ?
Result: false
